The values you see were collected from PubChem BioAssay (NCI).

Each item that follows carries a reported TGI.
Tested on: UACC-62 melanoma
Assay: NCI tumour cell line growth inhibition, 48 h
measured-attribute: TGI

>>> data_value("c1c[nH]c(C23C4C5C6C4C2C6C53)n1 (stereo not drawn)")
"> 100 µM"
>>> data_value("O=C(N/N=C(/COc1ccc([N+](=O)[O-])cc1)N=Cc1ccncc1)c1ccncc1")
"> 100 µM"
>>> data_value("CSc1n[n+]2c(s1)SCCC2")
"> 100 µM"
>>> data_value("O=C1CCCCCCCCCCC1CN1CCCCC1 (stereo not drawn)")
"> 100 µM"
>>> data_value("CC(=O)N=C1N(/C=C2\\C(=O)Oc3ccccc3C2=O)C(=O)/C(=C/c2ccc(NC(C)=O)cc2)N1C")
"> 100 µM"
>>> data_value("O=c1c2cccc3cccc(c4n1CCN=4)c32")
"> 100 µM"
>>> data_value("COc1ccc(C(=O)c2cc3c(N)c(C(=O)Nc4ccc(C)cc4)sc3nc2C)cc1")
"> 100 µM"
>>> data_value("C/C=C/C1OC(O)(C(C)C(O)[C@H](C)C2OC(=O)/C(OC)=C/C(C)=C/[C@@H](C)[C@@H](O)[C@@H](C)C(O)C(C)C/C(C)=C/C=C/C2OC)C[C@@H](OC2CC(O)C(OC(N)=O)C(C)O2)C1C (stereo partly drawn)")
"< 0.01 µM"
>>> data_value("O=C(OCc1ncc(-c2ccc(C(F)(F)F)cc2)c(NC2CCCCCC2)n1)c1c(F)c(F)c(F)c(F)c1F")
"29.2 µM"
>>> data_value("CCOC(=O)C(NC(=O)c1ccccc1)(N1CCOCC1)C(F)(F)F (stereo not drawn)")
"> 100 µM"
>>> data_value("FC1C2=C(SC1(F)F)C1CCC2C1 (stereo not drawn)")
"> 100 µM"
>>> data_value("Cc1c(C(=O)/C=C/c2ccc(N(C)C)cc2)c(=O)n(-c2ccccc2)n1C")
"> 100 µM"
>>> data_value("C[N+]1(CCCl)CC[N+](C)(CCCl)CC1 (stereo not drawn)")
"> 100 µM"
>>> data_value("CCCCCCCCCCCCCCCCCC(=O)OCC(COC(=O)CCCN)OC(=O)CCCN (stereo not drawn)")
"35.3 µM"
>>> data_value("O=[N+]([O-])CCc1cccc([N+](=O)[O-])c1")
"> 100 µM"
>>> data_value("COc1cc(CNc2ccccc2C(=O)N2CCN(C(=O)c3cc(-c4cc(OC)c(OC)c(OC)c4)n4nc(-c5ccccc5)cc4n3)CC2)cc(OC)c1OC")
"> 100 µM"
>>> data_value("O=C1CC(c2cccc(Br)c2)n2cccc21 (stereo not drawn)")
"> 100 µM"
>>> data_value("COc1cccc(NC(=O)c2sc3nc4c(cc3c2N)C(=O)CCC4)c1")
"> 100 µM"
>>> data_value("Cc1ccc(/C(O)=C/c2nc3ccccc3s/c2=N/CS(=O)(=O)c2ccc(C)cc2)cc1")
"> 10 µM"
>>> data_value("Oc1ccc(Cl)cc1CN1CCN(Cc2cc(Cl)ccc2O)C1")
"3.94 µM"
>>> data_value("CC1=NN(c2nc(N)nc(CC#N)n2)C(C)(C)C1")
"> 100 µM"
>>> data_value("O=Cc1ccc(-c2ccc(-c3nc4ccccc4o3)cc2)o1")
"63.3 µM"
>>> data_value("CCC(CNc1cc(OC)cc2cccnc12)NC1CCCCC1 (stereo not drawn)")
"> 100 µM"
>>> data_value("C=C1C(=O)O[C@@H]2C=C(C)C3=CC(=O)[C@](C)(C[C@H](OC(=O)/C(C)=C\\C)[C@@H]12)O3")
"2.06 µM"
>>> data_value("COc1cc(-c2nc(-c3nc4ccccc4[nH]3)cc3c2[nH]c2ccccc23)cc(OC)c1OC")
"> 100 µM"
>>> data_value("COC(=O)[C@H](Cc1c[nH]c2ccccc12)NC(=O)c1ccc(CNC(=O)/C=C/c2cccc(Oc3ccccc3)c2)cc1")
"> 100 µM"
>>> data_value("COc1ccc(OC)c(NS(=O)(=O)c2ccc3nc(C)n(NS(=O)(=O)c4cc(OC)ccc4OC)c(=O)c3c2)c1")
"> 100 µM"
>>> data_value("CC(C)=CCC/C(C)=C/CC/C(C)=C/CC/C(=C/CC/C(C)=C\\CC/C(C)=C/CC/C(C)=C/CC/C(C)=C/Cc1cc(O)ccc1O)CO")
"5.17 µM"
>>> data_value("CC(=O)[CH-]C(=O)c1ccccc1.CC(=O)[CH-]C(=O)c1ccccc1.CCOCC[O-].CCOCC[O-].[Ti+4]")
"37.8 µM"
>>> data_value("COC(=O)N1CC2C3C4CC(C(c5ccccc5)=C4c4ccccc4)C3C21 (stereo not drawn)")
"27 µM"
>>> data_value("CCCCCCCCCCC1OC([C@@H](O)CC[C@H](O)C2CC[C@@H](CCCCCCCC(O)CC3=CC(C)OC3=O)O2)CCC1O (stereo partly drawn)")
"> 25 µM"
>>> data_value("CCOP(=O)(OCC)C(C#N)Cc1ccco1 (stereo not drawn)")
"> 10 µM"
>>> data_value("COc1nc(N)nc2c1ncn2C1OC(CO)C(O)C1O (stereo not drawn)")
"> 5000 µM"
